Test: probe aNOTCH2 binding on compound microarray – biochemical, small-molecule microarray, 635/667 nm fluorescence, primary screen (AID 1121);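 also: score merges feature fluorescence read at 667 nm with its signal to noise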
Details: higher = more signal
Classify by measured composite z-score: Condition met if it is equal to or exceeds -0.002, Condition not met if it is smaller.

For this compound, is measured composite z-score -0.002 or higher? C=CC[C@]1(C(=O)NCC(O)CO)COC(c2ccc(OCCCO)cc2)=N1 (stereo partly specified)
Condition not met

For this compound, is measured composite z-score -0.002 or higher? Cc1ccc(S[C@]2(C(=O)NCc3ccccc3)CC(=O)N(Cc3ccccc3C(F)(F)F)[C@@H]2c2ccc(CO)cc2)cc1
Condition met

For this compound, is measured composite z-score -0.002 or higher? O=C1NC(=O)C2C1C=CC(C(O)c1ccc(B(O)O)cc1)N2Nc1ccc(Cl)cc1Cl (stereo unspecified)
Condition met

For this compound, is measured composite z-score -0.002 or higher? O=C(NCC(O)CO)C1N=C(c2ccc(OCCCO)cc2)N(c2ccccc2)O1 (stereo unspecified)
Condition met

For this compound, is measured composite z-score -0.002 or higher? COC(=O)[C@]1(Cc2ccccc2)N=C(c2ccc(OCCCO)cc2)O[C@@H]1c1ccccc1CN=[N+]=[N-]
Condition met

For this compound, is measured composite z-score -0.002 or higher? O=C1c2ccccc2[C@@]2(Cc3ccccc3N(Cc3ccccc3)C2=O)[C@H](c2ccc(CO)cc2)N1Cc1ccccc1Cl
Condition not met

* * *

Assay: probe aInhba binding on compound microarray – biochemical, small-molecule microarray, 635/667 nm fluorescence, primary screen (AID 1148);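 also: score merges 667nm spot fluorescence with signal-to-noise for antibody binding to printed compounds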
Conditions: higher = more signal
value-type: composite z-score

Determine from records and report composite z-score for COCCOC(=O)N1C(=O)[C@@]2(c3cc(C#CCC(C(=O)OC)C(=O)OC)ccc31)[C@H](C(N)=O)[C@H]1C(=O)O[C@H](c3ccccc3)[C@H](c3ccccc3)N1[C@@H]2c1ccc(O)cc1
-0.0405

Determine from records and report composite z-score for COc1ccc([Si](C)(C)[C@H]2[C@H](CC(=O)N3CCC[C@H]3CO)O[C@@]3(C(=O)N(Cc4ccc(N5CCCCC5=O)cc4)c4ccccc43)[C@@H]2C)cc1
0.426

Determine from records and report composite z-score for COC(=O)[C@]1(Cc2ccccc2)N=C(c2ccc(OCCCO)cc2)O[C@@H]1c1ccccc1CN=[N+]=[N-]
0.233

Determine from records and report composite z-score for Cc1ccc(S[C@]2(C(=O)NC3CC3)CC(=O)N(C(C)C)[C@@H]2c2ccc(CO)cc2I)cc1
-0.394

Determine from records and report composite z-score for COc1ccc(NN2C(C(O)c3ccc(I)cc3)C=CC3C(=O)N(C4CCCCC4)C(=O)C32)cc1 (configuration not stated)
0.253

Determine from records and report composite z-score for COc1ccc([Si](C)(C)[C@H]2[C@H](CCO)O[C@@]3(C(=O)N(Cc4ccc(NC(=O)[C@H](C)O)cc4)c4ccccc43)[C@@H]2C)cc1
-0.0405

Determine from records and report composite z-score for COc1ccc([Si](C)(C)[C@@H]2[C@@H](CC(=O)N3Cc4ccccc4C[C@H]3CO)O[C@]3(C(=O)N(Cc4cccc(N5CCOC5=O)c4)c4ccccc43)[C@H]2C)cc1
-0.0581

* * *

Experiment: Pseudomonas biofilm growth suppression – PAO1 strain, BacTiter-Glo luminescence, LB-PBS, primary screen (AID 1144)
Conditions: P. aeruginosa PAO1 biofilm, 12 h, higher = more signal
Classify by measured z-score: satisfied if it is equal to or exceeds 0.1, not satisfied if it is smaller.

For this compound, is measured z-score 0.1 or higher? C=C(CCCC)/C(=C/C[C@H](OC(=O)c1ccncc1)c1ccc(OCCO)cc1)c1cnc2ccccc2c1
satisfied

For this compound, is measured z-score 0.1 or higher? C=C(CCCC)/C(=C/C[C@H](OC(C)=O)c1cccc(OCCO)c1)c1cnc2ccccc2c1
satisfied

For this compound, is measured z-score 0.1 or higher? CN1C(=O)C2C=CC(C(O)c3ccc(-c4ccccc4)s3)N(NC(=O)OC(C)(C)C)C2C1=O (centres undefined)
satisfied

For this compound, is measured z-score 0.1 or higher? [N-]=[N+]=NCc1ccccc1[C@@H]1OC(c2ccc(OCCCO)cc2)=N[C@]1(Cc1ccccc1N=[N+]=[N-])C(=O)NCC(O)CO (some centres undefined)
satisfied

For this compound, is measured z-score 0.1 or higher? O=C(NCC(O)CO)C1N=C(c2ccc(OCCCO)cc2)N(c2ccccc2)O1 (centres undefined)
satisfied

For this compound, is measured z-score 0.1 or higher? CC(C)(C)N1CC=CC23O[C@@H]4/C=C\CCCOC(=O)C4[C@H]2C(=O)N(CCCO)[C@@H]3C1=O (some centres undefined)
satisfied

For this compound, is measured z-score 0.1 or higher? O=C1[C@@H]2[C@@H](CC(COc3ccccc3)=C([C@H](O)CCc3ccccc3)[C@@H]2CO)C(=O)N1Cc1ccccc1
not satisfied

For this compound, is measured z-score 0.1 or higher? COc1ccc([Si](C)(C)[C@@H]2[C@@H](CC(=O)N3Cc4ccccc4C[C@H]3CO)O[C@]3(C(=O)N(Cc4ccc(N5CCOC5=O)cc4)c4ccccc43)[C@H]2C)cc1
not satisfied

For this compound, is measured z-score 0.1 or higher? COC(=O)[C@@]1(Cc2ccccc2)[C@H]2c3cc(C(=O)N(C)C)n(Cc4ccc(S(C)(=O)=O)cc4)c3C[C@H]2CN1C(=O)c1ccccc1
not satisfied

* * *

Biological target: Left-right determination factor 2 (Homo sapiens) (UniProt O00292)
Sequence (O00292 whole entry, looked up): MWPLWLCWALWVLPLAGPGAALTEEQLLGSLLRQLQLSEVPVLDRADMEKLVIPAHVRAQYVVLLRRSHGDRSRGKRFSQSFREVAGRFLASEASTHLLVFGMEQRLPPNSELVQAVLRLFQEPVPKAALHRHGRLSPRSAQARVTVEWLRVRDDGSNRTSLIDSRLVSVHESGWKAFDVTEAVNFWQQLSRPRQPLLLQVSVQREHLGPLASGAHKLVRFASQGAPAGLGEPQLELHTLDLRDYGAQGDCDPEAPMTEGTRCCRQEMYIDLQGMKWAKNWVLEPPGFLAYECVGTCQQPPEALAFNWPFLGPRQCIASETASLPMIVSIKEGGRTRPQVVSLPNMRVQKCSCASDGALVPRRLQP
Experiment: small molecules binding LEFTY2 protein – biochemical, small-molecule microarray, 635 nm fluorescence scan, primary screen (AID 1110)
Conditions: higher = more signal
Please go through the items and note down their composite z-score.
Answer with the value's number alone.

Determine from records and report composite z-score for CC=CC(O)C1C=CC2C(=O)NC(=O)C2N1Nc1ccc(Cl)cc1Cl (stereo not given)
0.483

Determine from records and report composite z-score for COCCCN1C(=O)[C@@]2(c3ccc([N+](=O)[O-])cc3)CC(=O)N(CC34CC5CC(CC(C5)C3)C4)[C@@H]2c2ccc(CO)cc21
-0.407

Determine from records and report composite z-score for CCCN1C(=O)[C@@]2(c3ccc([N+](=O)[O-])cc3)CC(=O)N(CC34CC5CC(CC(C5)C3)C4)[C@@H]2c2ccc(CO)cc21
-0.242

Determine from records and report composite z-score for CC1CC/C=C\[C@H]2OC34C=CCN(Cc5ccccc5)C(=O)[C@H]3N(CCCCCCO)C(=O)[C@@H]4C2C(=O)O1 (stereo not given in full)
-1.26

Determine from records and report composite z-score for CC(C)C[C@@H]1NC(=O)[C@@H]2C[C@H](C(=O)NCCCCCCNC(=O)CS)[C@H](c3cccc(OCCO)c3)N2C1=O
0.622

Determine from records and report composite z-score for CC(C)N1C(=O)c2ccccc2[C@@H](C(=O)NCC(F)(F)F)[C@@H]1c1ccc(CO)cc1
0.0101

Determine from records and report composite z-score for Cc1ccc(S[C@]2(C(=O)NCC(F)(F)F)CC(=O)N(Cc3ccccc3C(F)(F)F)[C@@H]2c2ccc(CO)cc2)cc1
-1.32

Determine from records and report composite z-score for C=C(CCCC)/C(=C/C[C@H](OC(=O)c1ccncc1)c1ccccc1OCCO)c1cc(C(=O)OC)ccc1OC
-0.015

Determine from records and report composite z-score for COc1ccc([Si](C)(C)[C@@H]2[C@@H](CC(=O)N3CCC[C@H]3CO)O[C@]3(C(=O)N(Cc4ccc(N5CCOC5=O)cc4)c4ccccc43)[C@H]2C)cc1
0.327

Determine from records and report composite z-score for NC(=O)N1C(=O)C2C(C1=O)C1C=C(CCCO)C2C(C2CC2)N1Cc1sc2ccccc2c1Cl (stereo not given)
0.138

* * *

Biological target: E3 ubiquitin-protein ligase XIAP (Homo sapiens) (UniProt P98170)
Sequence (P98170 whole entry, looked up): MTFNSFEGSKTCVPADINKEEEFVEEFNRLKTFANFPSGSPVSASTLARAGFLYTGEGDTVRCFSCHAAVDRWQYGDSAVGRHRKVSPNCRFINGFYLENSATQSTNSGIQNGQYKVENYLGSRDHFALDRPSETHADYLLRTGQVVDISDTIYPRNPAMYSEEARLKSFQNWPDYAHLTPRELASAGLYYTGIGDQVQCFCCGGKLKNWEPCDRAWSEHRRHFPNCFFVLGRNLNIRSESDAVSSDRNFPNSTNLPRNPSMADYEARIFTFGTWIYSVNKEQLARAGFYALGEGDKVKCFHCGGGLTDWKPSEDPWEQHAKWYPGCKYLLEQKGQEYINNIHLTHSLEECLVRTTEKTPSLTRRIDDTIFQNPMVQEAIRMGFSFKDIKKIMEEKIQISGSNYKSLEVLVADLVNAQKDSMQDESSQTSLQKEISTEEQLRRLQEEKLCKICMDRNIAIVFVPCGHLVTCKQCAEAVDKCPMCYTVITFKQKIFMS
Assay: small molecules binding XIAP protein – biophysical, small-molecule microarray, fluorescence 635 nm, primary screen (AID 1181);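 also: score merges 667 nm emission and signal to noise over triplicate slides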
Conditions: higher = more signal
Please go through the items and note down their composite z-score.
Answer with the value's number alone.

Determine from records and report composite z-score for CCN(CC)c1ccc(N2CC=CC34O[C@@H]5C=CCCOC(=O)C5[C@H]3C(=O)N(C(C)CO)[C@@H]4C2=O)cc1 (stereo not given in full)
0.741

Determine from records and report composite z-score for COc1ccc([Si](C)(C)[C@H]2[C@H](CC(=O)N3Cc4ccccc4C[C@H]3CO)O[C@@]3(C(=O)N(C)c4c(Br)cc(C)cc43)[C@@H]2C)cc1
-0.134

Determine from records and report composite z-score for COC(=O)C(CC#Cc1ccc2c(c1)[C@]1(C(=O)N2)[C@H](C(=O)N2CCc3cc(OC)c(OC)cc3C2)[C@H]2C(=O)O[C@H](c3ccccc3)[C@H](c3ccccc3)N2[C@@H]1c1ccccc1OCCO)C(=O)OC
-0.11

Determine from records and report composite z-score for C=CCOC(=O)[C@@H]1[C@H]2C(=O)O[C@H](c3ccccc3)[C@H](c3ccccc3)N2[C@H](c2ccc(OCCOC(=O)[C@H]3C[C@H]4C(=O)N[C@@H](CCCCN(C)C)C(=O)N4[C@H]3c3ccc(O)cc3)cc2)[C@@]12C(=O)Nc1ccc(I)cc12
-0.224

Determine from records and report composite z-score for O=C1C2C=CC(C(O)C3CCCCC3)N(n3cnnc3)C2C(=O)N1Cc1ccccc1 (stereo not given)
-0.0535

Determine from records and report composite z-score for COC(=O)C[C@H]1O[C@@]2(C[C@@H]1[Si](C)(C)C)C(=O)N(C)c1ccccc12
-0.0966

Determine from records and report composite z-score for CN(C)c1ccc(C(O)C2C=CC3C(=O)N(Cc4ccccc4)C(=O)C3N2n2cnnc2)cc1 (stereo not given)
0.0968

Determine from records and report composite z-score for CO[C@H]1O[C@H](CO)[C@@H](OC(=O)Nc2ccc3c(c2)OCO3)[C@H](OC(=O)Nc2ccccc2-c2ccccc2)[C@H]1OC(=O)Nc1ccccc1-c1ccccc1
0.441

Determine from records and report composite z-score for COc1cc(OC)c(C(O)C2C=CC3C(=O)N(c4ccccc4)C(=O)C3N2Nc2ccc(C(C)C)cc2)cc1Br (stereo not given)
0.0838

Determine from records and report composite z-score for CCCC#C[Si](O[C@H](CC)c1cn(Cc2ccccc2)nn1)(C(C)C)C(C)C
-0.173
